Biological target: dopamine D4 receptors in cloned human dopamine receptor subtype 4.2 membranes (Homo sapiens, UniProt P21917, DEL271-302)
Sequence (P21917 with tags, fused parts or gaps DEL271-302): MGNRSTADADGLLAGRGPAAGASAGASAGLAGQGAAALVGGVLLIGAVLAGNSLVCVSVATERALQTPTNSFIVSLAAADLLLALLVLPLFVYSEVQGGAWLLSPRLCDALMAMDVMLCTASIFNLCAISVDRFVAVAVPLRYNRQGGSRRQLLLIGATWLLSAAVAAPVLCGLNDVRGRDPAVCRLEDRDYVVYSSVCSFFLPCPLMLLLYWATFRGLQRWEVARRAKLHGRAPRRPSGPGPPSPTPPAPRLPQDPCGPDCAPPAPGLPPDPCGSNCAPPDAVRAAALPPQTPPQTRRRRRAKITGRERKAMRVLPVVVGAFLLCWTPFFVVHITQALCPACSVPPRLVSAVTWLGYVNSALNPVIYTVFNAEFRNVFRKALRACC
Test: 3H-YM-09151-2 binding (affinity for dopamine D4 receptors)
Conditions: 3H-YM-09151-2, cloned human D4.2 membranes; * means that the test result is preliminary; read-out: D4-bind. IC50
pIC50: −log10 of the molar value.

molecule: CC(=O)N1CC(CCN2CC=C(c3c[nH]c4c(Cl)c(Cl)ccc34)CC2)c2ccccc21 (centres unmarked) [Compound 20g]
pIC50: 7.80
//
molecule: C1=C(c2c[nH]c3cc4c(cc23)OCO4)CCN(CC2Cc3ccccc3C2)C1 [Compound 11e]
pIC50: 7.80
//
molecule: Fc1ccc2[nH]cc(C3=CCN(CCC4CCc5ccccc54)CC3)c2c1 (centres unmarked) [Compound 8b]
pIC50: 8.55
//
molecule: CC(=O)N1CC(CCN2CC=C(c3c[nH]c4cc(Cl)ccc34)CC2)c2ccccc21 (single isomer, unassigned; (+)) [Compound 34a]
pIC50: 8.40
//
molecule: Clc1ccc2c(C3=CCN(CCCC4Cc5ccccc5C4)CC3)c[nH]c2c1 [Compound 11h]
pIC50: 7.62
//
molecule: CC(=O)Nc1ccc2c(c1)C(CCN1CC=C(c3c[nH]c4cc(Cl)ccc34)CC1)CC2 (centres unmarked) [Compound 18c]
pIC50: 7.39
//
molecule: Clc1ccc2c(C3CCN(CC4Cc5ccccc5C4)CC3)c[nH]c2c1 [Compound 21a]
pIC50: 9.32
//
molecule: Clc1ccc2c(C3=CCN(CCC4Cc5ccccc5C4)CC3)c[nH]c2c1 [Compound 11g]
pIC50: 7.92

====

Biological target: dopamine D4 receptors in cloned human dopamine receptor subtype 4.2 membranes (Homo sapiens, UniProt P21917, DEL271-302)
Assay: 3H-YM-09151-2 binding (affinity for dopamine D4 receptors)
Conditions: 3H-YM-09151-2, cloned human D4.2 membranes; * means that the test result is preliminary; read-out: D4-bind. IC50
pIC50: −log10 of the molar value.

molecule: Clc1ccc2c(C3CCN(CCCCC4Cc5ccccc5C4)CC3)c[nH]c2c1 [Compound 21h]
pIC50: 7.85
--
molecule: Clc1ccc2c(C3CCN(CCCC4Cc5ccccc5C4)CC3)c[nH]c2c1 [Compound 21g]
pIC50: 8.14
--
molecule: Clc1ccc2c(ccn2C2CCN(CCC3Cc4ccccc4C3)CC2)c1 [Compound 29a]
pIC50: 8.16
--
molecule: CC(=O)N1CC(CCN2CC=C(c3c[nH]c4cc(Cl)ccc34)CC2)c2ccccc21 (centres unmarked) [Compound 20a]
pIC50: 8.51
--
molecule: CC(C)(C)OC(=O)N1CC(CCN2CC=C(c3c[nH]c4cc(Cl)ccc34)CC2)c2ccccc21 (centres unmarked) [Compound 20i]
pIC50: 8.54
--
molecule: Fc1ccc2[nH]cc(C3CCN(CCCCC4CCc5ccccc54)CC3)c2c1 (centres unmarked)
pIC50: 8.08
--
molecule: Clc1ccc2c(C3=CCN(CC4CCc5ccc(Br)cc54)CC3)c[nH]c2c1 (centres unmarked)
pIC50: 7.08
--
molecule: N#Cc1ccc2c(c1)C(CN1CCC(c3c[nH]c4cc(Cl)ccc34)CC1)CC2 (centres unmarked)
pIC50: 8.48
--
molecule: CC(=O)N1CC(CCN2CC=C(c3c[nH]c4cc(Cl)ccc34)CC2)c2ccccc21 (single isomer, unassigned; (-)) [Compound 34b]
pIC50: 7.62
--
molecule: Clc1ccc2c(C3=CCN(CCCC4CCc5ccccc54)CC3)c[nH]c2c1 (centres unmarked)
pIC50: 7.85
--
molecule: Clc1cccc2c(C3=CCN(CC4Cc5ccccc5C4)CC3)c[nH]c12 [Compound 11c]
pIC50: 8.42
--
molecule: Fc1ccc2[nH]cc(C3=CCN(CCCCC4CCc5ccccc54)CC3)c2c1 (centres unmarked)
pIC50: 7.70
--
molecule: O=CN1CC(CCN2CC=C(c3c[nH]c4cc(Cl)ccc34)CC2)c2ccccc21 (centres unmarked) [Compound 20c]
pIC50: 8.62
--
molecule: O=CN1CC(CCN2CCC(c3c[nH]c4cc(Cl)ccc34)CC2)c2ccccc21 (centres unmarked) [Compound 20d]
pIC50: 8.52
--
molecule: Clc1ccc2c(C3=CCN(CCCCC4CCc5ccccc54)CC3)c[nH]c2c1 (centres unmarked)
pIC50: 7.47
--
molecule: C1=C(n2ccc3ccccc32)CCN(CCC2Cc3ccccc3C2)C1 [Compound 28b]
pIC50: 7.85
--
molecule: COc1ccc2c(c1)C(CN1CC=C(c3c[nH]c4ccccc34)CC1)CC2 (centres unmarked)
pIC50: 7.70

====

Target: dopamine D4 receptors in cloned human dopamine receptor subtype 4.2 membranes (Homo sapiens, UniProt P21917, DEL271-302)
Assay: 3H-YM-09151-2 binding (affinity for dopamine D4 receptors)
Conditions: 3H-YM-09151-2, cloned human D4.2 membranes; * means that the test result is preliminary; read-out: D4-bind. IC50
Procedure: By this method the inhibition by drugs of the binding of the dopamine D4 antagonist ^3H-YM-09151-2 to dopamine D4 receptors in cloned human dopamine receptor subtype 4.2 membranes is determined in vitro. Accordingly, this is a test for affinity for dopamine D4 receptors. The test is performed using a preparation of cloned dopamine D4 cell membranes CRM-016®, Dupharma A/S, Denmark, in accordance with the product specifications.
pIC50: −log10 of the molar value.

compound: CC(=O)Nc1cccc2c1CC(CN1CCC(c3c[nH]c4cc(Cl)ccc34)CC1)C2 (stereo not drawn) [Compound 18b]
pIC50: 8.37

compound: C1=C(c2cc3ccccc3[nH]2)CCN(CCC2Cc3ccccc3C2)C1 [Compound 28c]
pIC50: 7.89

compound: c1ccc2c(c1)CC(CN1CCC(c3c[nH]c4cc5c(cc34)OCO5)CC1)C2 [Compound 21e]
pIC50: 7.64

compound: C1=C(c2c[nH]c3ccccc23)CCN(CC2Cc3ccccc3C2)C1 [Compound 11b]
pIC50: 8.52

compound: c1ccc2c(c1)CC(CCN1CCN(c3ccc4[nH]ccc4c3)CC1)C2 [Compound 25b]
pIC50: 8.28

compound: Clc1ccc2c(C3=CCN(CC4Cc5ccccc5C4)CC3)c[nH]c2c1 [Compound 11a]
pIC50: 8.55

compound: CC(=O)N1CC(CCN2CCN(c3ccc4[nH]ccc4c3)CC2)c2ccccc21 (stereo not drawn) [Compound 20j]
pIC50: 8.16

compound: Fc1ccc2[nH]cc(C3CCN(CCC4CCc5ccccc54)CC3)c2c1 (stereo not drawn)
pIC50: 8.64

compound: CC(=O)Nc1cccc2c1CC(CN1CC=C(c3c[nH]c4cc(Cl)ccc34)CC1)C2 (stereo not drawn) [Compound 18a]
pIC50: 8.12

compound: Clc1ccc2c(ccn2C2=CCN(CCC3Cc4ccccc4C3)CC2)c1 [Compound 28a]
pIC50: 6.80

compound: CC(=O)Nc1ccc2c(c1)CCC2CN1CC=C(c2c[nH]c3cc(Cl)ccc23)CC1 (stereo not drawn)
pIC50: 7.52

compound: Clc1cccc2c(C3CCN(CC4Cc5ccccc5C4)CC3)c[nH]c12 [Compound 21c]
pIC50: 8.74

compound: COc1cccc2c1C(CN1CC=C(c3c[nH]c4cc(Cl)ccc34)CC1)CC2 (stereo not drawn)
pIC50: 7.49

compound: Clc1ccc2c(C3=CCN(CC4Cc5ccccc5C4)CC3)c[nH]c2c1Cl [Compound 11d]
pIC50: 7.57

compound: C1=C(c2c[nH]c3ccccc23)CCN(CC2CCc3ccccc32)C1 (stereo not drawn)
pIC50: 8.46

compound: Clc1ccc2c(C3=CCN(CCC4CNc5ccccc54)CC3)c[nH]c2c1 (stereo not drawn) [Compound 30a]
pIC50: 8.00

compound: CC(=O)N1CC(CCN2CC=C(c3c[nH]c4cc5c(cc34)OCO5)CC2)c2ccccc21 (stereo not drawn) [Compound 20h]
pIC50: 7.52

compound: CC(=O)Nc1ccc2c(c1)C(CCCN1CC=C(c3c[nH]c4cc(Cl)ccc34)CC1)CC2 (stereo not drawn) [Compound 18d]
pIC50: 8.14

====

Counter-ions that a name gives are not always drawn.
// melting point lookup, one value per entry

molecule: CC(=O)N1CC(CCCN2CC=C(c3c[nH]c4cc(Cl)ccc34)CC2)c2ccccc21 (stereo not shown) (as salt: oxalate) [Compound 20k]
melting point: 112 to 115 °C
//
molecule: CC(=O)Nc1ccc2c(c1)CCC2CN1CC=C(c2c[nH]c3cc(Cl)ccc23)CC1 (stereo not shown) (as salt: fumarate)
melting point: 241 to 242 °C
//
molecule: Clc1cccc2c(C3=CCN(CC4Cc5ccccc5C4)CC3)c[nH]c12 (as salt: oxalate) [Compound 11c]
melting point: 135 to 136 °C
//
molecule: Clc1ccc2c(C3=CCN(CCC4CCc5ccccc54)CC3)c[nH]c2c1 (stereo not shown)
melting point: 181 to 183 °C
//
molecule: CC(=O)Nc1ccc2c(c1)C(CCCCN1CC=C(c3c[nH]c4cc(Cl)ccc34)CC1)CC2 (stereo not shown) (as salt: oxalate) [Compound 18e]
melting point: 125 to 128 °C
//
molecule: Clc1ccc2c(C3CCN(CC4Cc5ccccc5C4)CC3)c[nH]c2c1Cl [Compound 21d]
melting point: 141 to 142 °C
//
molecule: Clc1ccc2c(C3CCN(CCC4Cc5ccccc5C4)CC3)c[nH]c2c1 [Compound 21f]
melting point: 155 to 156 °C
//
molecule: Clc1cccc2c(C3CCN(CC4Cc5ccccc5C4)CC3)c[nH]c12 (as salt: oxalate) [Compound 21c]
melting point: 218 to 219 °C
//
molecule: CC(=O)Nc1ccc2c(c1)CC(CN1CCC(c3c[nH]c4cc(Cl)ccc34)CC1)C2 (stereo not shown)
melting point: 151 to 152 °C
//
molecule: CC(=O)Nc1ccc2c(c1)C(CCCN1CC=C(c3c[nH]c4cc(Cl)ccc34)CC1)CC2 (stereo not shown) (as salt: oxalate) [Compound 18d]
melting point: 110 to 115 °C
//
molecule: Fc1ccc2[nH]cc(C3=CCN(CCC4CCc5ccccc54)CC3)c2c1 (stereo not shown)
melting point: 172 to 176 °C
//
molecule: c1ccc2c(c1)CC(CN1CCN(c3ccc4[nH]ccc4c3)CC1)C2 (as salt: hydrochloride) [Compound 11f]
melting point: 263 to 265 °C
//
molecule: Clc1ccc2c(C3CCN(CCCCC4Cc5ccccc5C4)CC3)c[nH]c2c1 [Compound 21h]
melting point: 139 to 140 °C
//
molecule: Clc1ccc2c(C3=CCN(CCC4Cc5ccccc5C4)CC3)c[nH]c2c1 [Compound 11g]
melting point: 217 to 218 °C
//
molecule: C1=C(c2cc3ccccc3[nH]2)CCN(CCC2Cc3ccccc3C2)C1 [Compound 28c]
melting point: 175 to 176 °C
//
molecule: CC(=O)Nc1cccc2c1CCC2CN1CC=C(c2c[nH]c3cc(Cl)ccc23)CC1 (stereo not shown)
melting point: 189 to 190 °C
